Experiment: Half life in human liver microsomes
Assay type: ADME, Microsome
observable: t1/2 (h)

A. CC1=CC[C@@]2(CC1=O)[C@@H](C(=O)O)CC[C@H]2C(C)C
B. CC1=CC[C@@]2([C@H](O)C1)[C@@H](C(=O)O)CC[C@H]2C1CCCCC1
C. CC1=CC[C@@]2(C[C@@H]1O)[C@@H](C(=O)O)CC[C@H]2C1CCCCC1
Which order do these items fall in when sorted by t1/2 from largest to smallest? Your reply should list the labels following the order given in the request. A, B, C

* * *

Target: 11-beta-hydroxysteroid dehydrogenase 1 (Homo sapiens, UniProt P28845, C272S)
Sequence (P28845 whole entry C272S): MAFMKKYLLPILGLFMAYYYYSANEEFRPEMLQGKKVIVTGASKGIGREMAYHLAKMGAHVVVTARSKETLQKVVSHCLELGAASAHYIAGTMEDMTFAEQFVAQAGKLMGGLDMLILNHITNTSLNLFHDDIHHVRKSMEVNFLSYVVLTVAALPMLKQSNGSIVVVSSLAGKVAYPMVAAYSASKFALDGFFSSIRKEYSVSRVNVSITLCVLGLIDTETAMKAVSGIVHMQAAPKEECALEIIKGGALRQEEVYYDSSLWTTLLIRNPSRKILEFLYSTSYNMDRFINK
Assay: Inhibition of N-terminal MKHQHQHQHQHQHQQPL-tagged 11beta-HSD1 C272S mutant (unknown origin) expressed in Escherichia coli BL21 (DE3) using cortisol as substrate measured for 1 hr in presence of NADPH by fluorescence assay
observable: Ki (µM)

Would you please look over these solved cases?
CC1=CC[C@@]2(CC1=O)[C@@H](C(=O)O)CC[C@H]2C(C)C	5.15
CC1=CC[C@@]2(C[C@@H]1O)[C@@H](C(=O)O)CC[C@H]2C1CCCCC1	0.21
CC1=CC[C@@]2([C@H](O)C1)[C@@H](C(=O)O)CC[C@H]2C1CCCCC1	4.63

P. CC(=O)O[C@@H]1C[C@@](C)(O)CC[C@]12[C@@H](C(=O)O)CC[C@H]2C(C)C
Q. CC1=CC[C@@]2([C@H](O)C1)[C@@H](C(=O)O)CC[C@H]2C(C)C
Which record would sort first by descending Ki, P or Q ? Please reply using the label of the selected record. P
(P: 289 µM, Q: 8.23 µM)

a. CC(C)[C@@H]1CC[C@H](C(=O)O)[C@]12C[C@@H](O)[C@@](C)(O)[C@@H](O)C2
b. C[C@]1(O)CC[C@@]2(C[C@@H]1O)[C@@H](C(=O)O)CC[C@H]2C1CCCCC1
For the pair a and b , which member has the lower Ki number? Please reply using the label of the selected record. b
(b: 57.6 µM, a: 130 µM)

* * *

Target: 11-beta-hydroxysteroid dehydrogenase 1 (Homo sapiens, UniProt P28845, C272S)
Assay: Inhibition of N-terminal MKHQHQHQHQHQHQQPL-tagged 11beta-HSD1 C272S mutant (unknown origin) expressed in Escherichia coli BL21 (DE3) using cortisol as substrate measured for 1 hr in presence of NADPH by fluorescence assay
Overview of recorded Ki for various compounds

Would you please look over these solved cases?
C=C1CC[C@@]2(C(OC)[C@@H]1O)[C@@H](C(=O)O)CC[C@H]2C(C)C (stereo partly drawn)	145 µM
CC1=CC[C@@]2(C[C@@H]1O)[C@@H](C(N)=O)CC[C@H]2C(C)C	> 500 µM

Here is the next item to consider.
Name the recorded Ki of the item `COC(=O)[C@H]1CC[C@@H](C(C)C)[C@@]12CC=C(C)[C@@H](O)C2` in your answer. > 500 µM
